Tested on: SW620 human colorectal cancer cells
Test: Potentiation of the growth inhibiting activity of MMS, MTT based cell viability assay
Conditions: Homo sapiens, SW-620, 120 h, read-out: Compounds potentiate the growth inhibiting activity of MMS (IC50)
VALUE_KIND: IC50 (nM)

Recorded results for 5 compounds are shown here.
>>> value("O=C(c1ccccc1)N1CCN(C(=O)c2cccc(Cn3c4c(c(=O)[nH]c3=O)CCCC4)c2)CC1 [Example 10]")
36
>>> value("O=C(c1ccc(F)c(Cn2c3c(c(=O)[nH]c2=O)CCCC3)c1)N1CCN(c2ccccn2)CC1 [Example 47]")
4.6
>>> value("O=C(c1cc(Cn2c3c(c(=O)[nH]c2=O)CCCC3)ccc1F)N1CCN(c2cnccn2)CC1 [Example 28]")
4.9
>>> value("O=C(c1cc(Cn2c3c(c(=O)[nH]c2=O)CCCC3)ccc1F)N1CCN(C(=O)C2CCCO2)CC1 (stereo not drawn) [Example 39]")
15
>>> value("O=C(c1ccsc1)N1CCN(C(=O)c2cc(Cn3c4c(c(=O)[nH]c3=O)CCCC4)ccc2F)CC1 [Example 36]")
3.4

a. O=C(c1cc(Cn2c3c(c(=O)[nH]c2=O)CCCC3)ccc1F)N1CCN(c2nccs2)CC1 [Example 23]
b. O=C(c1ccc(F)cc1)N1CCN(C(=O)c2cc(Cn3c4c(c(=O)[nH]c3=O)CCCC4)ccc2F)CC1 [Example 32]
c. O=C(c1cccc(Cn2c3c(c(=O)[nH]c2=O)CCCC3)c1)N1CCN(c2nccs2)CC1 [Example 8]
d. O=C(c1ccoc1)N1CCN(C(=O)c2cc(Cn3c4c(c(=O)[nH]c3=O)CCCC4)ccc2F)CC1 [Example 35]
Task: List by increasing IC50. Put the labels in the requested order and list them out.
Output: a, d, b, c
(a: 1.5 nM, d: 4 nM, b: 6.3 nM, c: 11 nM)

A. O=C(c1cc(Cn2c3c(c(=O)[nH]c2=O)CCCC3)ccc1F)N1CCN(c2ccccc2)CC1 [Example 33]
B. CCN1CCN(C(=O)c2cc(Cn3c4c(c(=O)[nH]c3=O)CCCC4)ccc2F)CC1 [Example 31]
Task: Which record shows the lower IC50: the first, A , or the second, B ? Selection: enter the item's label.
Output: A
(A: 7.6 nM, B: 31 nM)

P. CCS(=O)(=O)N1CCN(C(=O)c2cc(Cn3c4c(c(=O)[nH]c3=O)CCCC4)ccc2F)CC1 [Example 29]
Q. O=C(c1ccccc1)N1CCN(C(=O)c2cc(Cn3c4c(c(=O)[nH]c3=O)CCCC4)ccc2F)CC1 [Example 18]
R. CC(=O)N1CCN(C(=O)c2cc(Cn3c4c(c(=O)[nH]c3=O)CCCC4)ccc2F)CC1 [Example 34]
Task: List by increasing IC50. Put the labels in the requested order and list them out.
Output: Q, P, R

1. COc1ccc(C(=O)N2CCN(C(=O)c3cc(Cn4c5c(c(=O)[nH]c4=O)CCCC5)ccc3F)CC2)cc1 [Example 37]
2. O=C(c1cc(Cn2c3c(c(=O)[nH]c2=O)CCCC3)ccc1F)N1CCN(C(=O)C2CCCC2)CC1 [Example 25]
3. O=C(c1cccc(Cn2c3c(c(=O)[nH]c2=O)CCCC3)c1)N1CCN(C(=O)C2CCC2)CC1 [Example 14]
4. O=C(c1ccco1)N1CCN(C(=O)c2cc(Cn3c4c(c(=O)[nH]c3=O)CCCC4)ccc2F)CC1 [Example 27]
5. O=C(c1cc(Cn2c3c(c(=O)[nH]c2=O)CCCCC3)ccc1F)N1CCN(c2ncccn2)CC1 [Example 59]
Task: Arrange by IC50, high to low. Put the labels in the requested order and list them out.
Output: 5, 3, 1, 4, 2

P. O=C(c1cc(Cn2c3c(c(=O)[nH]c2=O)CCCC3)ccc1F)N1CCN(C2CCCCC2)CC1 [Example 30]
Q. O=C(c1cc(Cn2c3c(c(=O)[nH]c2=O)CCCC3)ccc1F)N1CCN(C(=O)C2CCCCC2)CC1 [Example 24]
Task: Which record shows the lower IC50: the first, P , or the second, Q ? Selection: enter the item's label.
Output: Q

1. O=C(c1cccc(Cn2c3c(c(=O)[nH]c2=O)CCCC3)c1)N1CCN(C(=O)c2ccco2)CC1 [Example 13]
2. O=C(c1ccccc1)N1CCN(C(=O)c2ccc(F)c(Cn3c4c(c(=O)[nH]c3=O)CCCC4)c2)CC1 [Example 48]
3. O=C(c1cc(Cn2c3c(c(=O)[nH]c2=O)CCCC3)ccc1F)N1CCN(C(=O)C2CCC2)CC1 [Example 22]
4. CC1CCc2c(c(=O)[nH]c(=O)n2Cc2ccc(F)c(C(=O)N3CCN(c4ncccn4)CC3)c2)C1 (stereo not drawn) [Example 57]
Task: List by increasing IC50. Put the labels in the requested order and list them out.
Output: 3, 2, 1, 4
(3: 1.7 nM, 2: 13 nM, 1: 33 nM, 4: 221 nM)

P. O=C(c1cc(Cc2n[nH]c(=O)c3ccccc23)ccc1F)N1CCN(C(=O)C2CC2)CC1 [AZD2281, olaparib, reference compound]
Q. O=C(c1cc(Cn2c3c(c(=O)[nH]c2=O)CCCC3)ccc1F)N1CCN(CC2CCCCC2)CC1 [Example 38]
Task: Which record shows the lower IC50: the first, P , or the second, Q ? Selection: enter the item's label.
Output: Q

A. O=C(c1ccsc1)N1CCN(C(=O)c2cccc(Cn3c4c(c(=O)[nH]c3=O)CCCC4)c2)CC1 [Example 15]
B. O=C(c1ccc(F)c(Cn2c3c(c(=O)[nH]c2=O)CCCC3)c1)N1CCN(C(=O)C2CCC2)CC1 [Example 50]
Task: Lab note: check whether A or B shows the higher recorded IC50. Selection: enter the item's label.
Output: A
(A: 31 nM, B: 16 nM)
